All figures here come from ChEMBL document CHEMBL5608172.

- System: HeLa
- protocol-summary: Anticancer activity against human HeLa cells assessed as reduction in cell viability by MTT assay
- Format: functional, cell-based
result-type: IC50 (nM)
Express your answer in nM, writing the number without its unit.

Prompt line: What IC50 value was documented for this compound, O=Cc1cc(Cc2ccc3oc(C(=O)c4ccc(Cl)cc4)cc3c2)ccc1OCc1cn(-c2ccccc2C(F)(F)F)nn1 ?
Response line: 29.1

====

- Test system: MDA-MB-231
- protocol-summary: Antiproliferative activity against human MDA-MB-231 cells assessed as reduction in cell viability
- Type: functional, cell-based
result-type: pIC50
// scale note: pIC50 = -log10(conc_M); give the bare number

Prompt line: Which measured pIC50 belongs to CC(C)[C@@H]1CC[C@@H](C)C[C@@H]1On1cc(CN2C(=O)C(=O)c3ccccc32)nn1 , tested on MDA-MB-231?
Response line: 5.75

====

- Tested on: A549
- protocol-summary: Antiproliferative activity against human A549 cells assessed as reduction in cell viability incubated for 48 hrs by MTT assay
- Type: toxicity, cell-based
- applied-conditions: A549, 48 h
Catalogue of IC50 readings, one per entry.
Just the number please, in µM, no unit attached.

1) Cc1ccc(NC(=O)c2ccc(CN3CCN(C)CC3)cc2)cc1Nc1nccc(-c2cccnc2)n1: 65

Prompt line: # input compound: Cc1ccc(-n2ncc(CN3C(=O)C(F)(F)c4cc(Br)ccc43)n2)cc1Nc1nccc(-c2cccnc2)n1 ; wanted: its IC50
Response line: 7.3

====

- Test system: PC-3
- protocol-summary: Cytotoxicity against human PC-3 cells assessed as reduction in cell growth incubated for 72 hrs by MTT assay
- Type: functional, cell-based
- applied-conditions: PC-3, 72 h
result-type: IC50 (µM)
# unit: µM | format: bare number

Prompt line: Request the reported IC50 associated with Cc1coc2c1C(=O)C(=O)c1c-2ccc2c1CCCC2(C)C
Response line: 3.2

====

- Test system: SW-620
- protocol-summary: Antiproliferative activity against human SW620 cells assessed as inhibition of cell growth measured after 72 hrs by MTT assay
- Type: functional, cell-based
- applied-conditions: SW-620, 72 h
result-type: pIC50
The scale used: pIC50 is minus the common logarithm of the concentration in molar units.

Prompt line: So what's the measured pIC50 for this one? c1ccc(-n2cc(-c3nc4ccc(C5=NCCN5)cc4s3)nn2)cc1
Response line: 6.60

====

- System: MCF7
- protocol-summary: Cytotoxicity against human MCF7 cells assessed as cell growth inhibition incubated for 72 hrs by SRB assay
- Type: functional, cell-based
- applied-conditions: MCF7, 72 h
result-type: IC50 (nM)
Please give a number only; it is taken to be in nM.

Prompt line: I am curious: what IC50 value has been reported for O=C(O)c1ccc(C(=O)NCn2cc(CSc3nc(-c4ccccc4)c(-c4ccccc4)n3-c3ccccc3)nn2)cc1 ?
Response line: 380

====

- System: MCF7
- protocol-summary: Antiproliferative activity against human MCF7 cells assessed as inhibition of cell growth measured after 72 hrs by MTT assay
- Format: functional, cell-based
- applied-conditions: MCF7, 72 h
result-type: pIC50
Quick note: pIC50 means taking -log10 of the concentration in moles per liter.

Prompt line: I am curious: what pIC50 value has been reported for COc1cc([N+](=O)[O-])ccc1-n1cc(CN2C(=O)S/C(=C\c3cn(-c4ccccc4)nc3-c3ccccc3)C2=O)nn1 ?
Response line: 6.37

====

- Test system: PC-3
- protocol-summary: Cytotoxicity against human PC-3 cells assessed as reduction in cell growth incubated for 48 hrs by MTT assay
- Assay type: functional, cell-based
- applied-conditions: PC-3, 48 h
result-type: IC50 (µM)
Respond with the bare value in µM.

Prompt line: # query: IC50 of entry NC(=S)N/N=C1/C(=O)N(Cc2cn(CC(=O)c3ccc(Br)cc3)nn2)c2ccccc21
Response line: 15.3

====

- protocol-summary: Cytotoxicity against hTERT Lung Fibroblast cells assessed as reduction in cell growth incubated for 72 hrs by MTT assay
- Format: toxicity, cell-based
- applied-conditions: human
Recorded IC50 at 72 h values for a group of molecules are listed next.
# output: bare number, implied unit µM

1. CC(=O)O[C@H]1CC[C@]2(C)[C@H]3CC=C4[C@@H]5[C@@H](C)[C@H](C)CC[C@]5(C(=O)OCc5cn(Cc6nonc6C)nn5)CC[C@@]4(C)[C@]3(C)CC[C@H]2C1(C)C: 10.4

Prompt line: What does the record list as IC50 at 72 h for C[C@H]1[C@H](C)CC[C@]2(C(=O)O)CC[C@]3(C)C(=CC[C@@H]4[C@@]5(C)CC[C@H](O)C(C)(C)[C@@H]5CC[C@]43C)[C@H]12 ?
Response line: 90.9

====

- protocol-summary: Antiproliferative activity against human WS1 cells assessed as reduction in cell viability incubated for 48 hrs by MTT assay
- Type: toxicity, cell-based
Measured IC50 at 48 h values are reported for all entries that follow.
The figure you give is taken to be in µM; do not add the unit.

1) Cc1ccc(NC(=O)c2ccc(CN3CCN(C)CC3)cc2)cc1Nc1nccc(-c2cccnc2)n1 [IMATINIB]: 9.6

Prompt line: What IC50 at 48 h value was documented for this compound, Cc1ccc(-n2ncc(CN3C(=O)C(F)(F)c4cc(Br)ccc43)n2)cc1Nc1nccc(-c2cccnc2)n1 ?
Response line: 18.6

====

- Tested on: MCF7
- protocol-summary: Anticancer activity against human MCF7 cells
- Assay type: functional, cell-based
result-type: pIC50
Quick note: pIC50 values are minus log10 of concentrations in mol/L.

Prompt line: Data request, read-out pIC50, for Cc1cc(=O)oc2cc(-n3cc(-c4cccc(-c5cn(-c6ccc7c(C)cc(=O)oc7c6)nn5)c4)nn3)ccc12
Response line: 6.52

====

- Tested on: Fibroblast
- protocol-summary: Antiproliferative activity against human Fibroblast cells
- Type: functional, cell-based
result-type: IC50

Prompt line: Which IC50 is reported with Fibroblast for this entry: CC(C)CCC1=C(OCc2cn(-c3cccc(Cl)c3)nn2)C(=O)c2ccccc2C1=O ?
Response line: 210 µM

====

- System: HepG2
- protocol-summary: Cytotoxicity against human HepG2 cells assessed as reduction in cell viability incubated for 48 hrs by MTT assay
- Format: functional, cell-based
- applied-conditions: HepG2, 48 h
result-type: IC50 (µM)
Enter your answer as a number in µM; do not include the unit.

Prompt line: What value of IC50 has been reported for the following compound? O=c1oc2ccccc2c(O)c1Sc1nnc(-c2ccc(Cl)cc2)o1
Response line: 3.46

====

pIC50 overview
- Tested on: MCF7
- protocol-summary: Cytotoxicity against human MCF7 cells assessed as reduction in cell growth incubated for 72 hrs by MTT assay
- Type: functional, cell-based
- applied-conditions: MCF7, 72 h
pIC50 here is simply -log10 of the concentration when that concentration is written in mol/L.

1) CC(=O)O[C@H]1CC[C@]2(C)[C@H]3CC=C4[C@@H]5[C@@H](C)[C@H](C)CC[C@]5(C(=O)OCc5cn(Cc6nonc6C)nn5)CC[C@@]4(C)[C@]3(C)CC[C@H]2C1(C)C: 5.81

Now look at this entry.
Prompt line: Please report the recorded pIC50 for C[C@H]1[C@H](C)CC[C@]2(C(=O)O)CC[C@]3(C)C(=CC[C@@H]4[C@@]5(C)CC[C@H](O)C(C)(C)[C@@H]5CC[C@]43C)[C@H]12 .
Response line: 4.60

====

Documented IC50 across a set of compounds
- Test system: HCT-116
- protocol-summary: Cytotoxicity against human HCT-116 cells assessed as reduction in cell growth incubated for 24 hrs by MTT assay
- Type: functional, cell-based
- applied-conditions: HCT-116, 24 h
State the answer as a number, implicitly in µM.

1) C=C(C)[C@@H]1CC[C@]2(CO)CC[C@]3(C)[C@H](CC[C@@H]4[C@@]5(C)Cc6nn(C(C)=O)nc6C(C)(C)[C@@H]5CC[C@]43C)[C@@H]12: 5.67

Prompt line: Item under review: C=C(C)[C@@H]1CC[C@]2(COC(C)=O)CC[C@]3(C)[C@H](CC[C@@H]4[C@@]5(C)Cc6nn(C(C)=O)nc6C(C)(C)[C@@H]5CC[C@]43C)[C@@H]12 . Reported IC50?
Response line: 22.5
